Method Description: NCI Yeast Anticancer Drug Screen. Data for the bub3 strain (AID 167)
Experimental Parameters: S. cerevisiae bub3 mutant strain, at 50.0 µM
The panel holds about 79,000 compounds, 15% with a hit somewhere; the sample as a whole holds those more often. Calls of active or inactive are those of the source. Rule as the data show it: active = growth inhibition above about 70%; inactive = the rest.
Pick one and only one: y (active), n (inactive)

# Compound, Qualitative Label
records = [
    ("Nc1nc(SCc2ccccc2)c2ncn(CCCl)c2n1", "n"),
]

Test call, this compound: O=S(=O)(C#Cc1ccccc1)c1ccccc1
y

Now give it for Cc1cc(C)c([O-])c(-[n+]2c(-c3ccccc3)cc(-c3ccccc3)cc2-c2ccccc2)c1 too.
y

====

Method Description: NCI Yeast Anticancer Drug Screen. Data for the mec2-1 strain (AID 157)
Experimental Parameters: S. cerevisiae mec2-1 strain, at 50.0 µM
About 79,000 compounds went through this panel and 15% of them were active in at least one assay; those are over-represented in the sample as a whole. Calls of active or inactive are those of the source. Rule as the data show it: active = growth inhibition above about 70%; inactive = the rest.
Pick one and only one: true (active), false (inactive)

Reference set, count: 6
# Molecule, Qualitative Label
data = [
    ("CC(C)(C)c1ccc2c(c1)CNCCNCc1cc(C(C)(C)C)ccc1OCC1(CO2)COc2ccc(C(C)(C)C)cc2CNCCNCc2cc(C(C)(C)C)ccc2OC1", "true"),
    ("COC(=O)CC1c2cc(OC)c3cccc(OC)c3c2CCC1(C)C(=O)OC (centres undefined)", "false"),
    ("Cc1nnc(NS(=O)(=O)c2ccc(N=Nc3cc(N=Nc4ccc(S(=O)(=O)Nc5nnc(C)s5)cc4)c4c(NC(=O)C(Cl)Cl)cccc4c3OC(=O)C(Cl)Cl)cc2)s1 (tested in a mixture with another compound)", "false"),
    ("CN1CCN(CCCCN2c3ccccc3Sc3ccc(C(=O)c4ccccc4)cc32)CC1", "false"),
    ("O/N=C(/Cc1nc2cc(Cl)c(Cl)cc2nc1C/C(=N/O)c1ccncc1)c1ccncc1", "true"),
    ("CCCCCCCCCCCC[n+]1cc2ccccc2cc1C", "true"),
]

Test call, this molecule: CCOC(=O)N1CCN(C=S)CC1
false

Now give it for CC[n+]1ccc(Nc2ccc(NC(=O)c3ccc(C(=O)Nc4ccc(Nc5cc[n+](CC)c(N)n5)cc4)cc3)cc2)nc1N too.
true

Now give it for CC1=CC(c2c(O)cc(O)c(C(=O)CCc3ccccc3)c2O)C(C(C)C)CC1 (centres undefined) too.
true

====

Method Description: NCI Yeast Anticancer Drug Screen. Data for the cln2 rad14 strain (AID 165);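 also: 0% = growth equal to vehicle treated cultures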
Experimental Parameters: S. cerevisiae cln2 rad14 strain, at 50.0 µM (retest, dose inferred, filed as 5.0)
This is part of a sample that, as a whole, favours compounds with a hit. Of some 79,000 tested, about 15% had one in any assay. Active and inactive are the calls of the source. Rule as the data show it: active = growth inhibition above about 70%; inactive = the rest.
Pick one and only one: Y (active), N (inactive)

# Compound, Qualitative Label
data = [
    ("COc1ccc(C2C3CCCC(C(c4ccc(OC)cc4)N2C)C32NC(=O)NC2=O)cc1 (stereo not given)", "Y"),
    ("CCCCCSc1nc2ncnc(N)c2[nH]1", "N"),
]

Test call, this compound: N#C/C(=C\c1cccnc1)c1csc2ccccc12
Y

Now give it for CCN(CC)C(=O)CCCC1CCCCC1 too.
N

====

Method Description: NCI Yeast Anticancer Drug Screen. Data for the rad50 strain (AID 155);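 also: 0% = growth of vehicle-only cultures of the same strain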
Experimental Parameters: S. cerevisiae rad50 strain growth inhibition; at 5.0 µM (retest, dose inferred, filed as 0.5); hits give high values
About 79,000 compounds went through this panel and 15% of them were active in at least one assay; those are over-represented in the sample as a whole.
growth inhibition for assorted compounds
Numeric only. Scale: %

A selection of reference data follows.
# Compound, Numeric Result
records = [
    ("Cc1c(O)c(Br)c(Br)c(Br)c1Br", 82),
    ("COc1ccc(C2=Nc3cc(C)c(C)cc3NC(c3ccccc3)C2)cc1 (stereo not drawn)", 11),
    ("Cc1cccc(Cc2cccc(Cl)c2)c1O", -1),
    ("CC(=O)c1c(O)c2cccc3c2n(c1=O)CCC3", 26),
    ("O=C(O)c1ccccc1C1c2ccccc2Oc2ccccc21", 36),
    ("O=C1CCSC(=S)N1c1ccccc1C(F)(F)F", 7),
    ("c1ccc2c(c1)OCC(CN1CCN(CC3COc4ccccc4O3)CC1)O2 (stereo not drawn)", 41),
    ("O=C1OC(CC(=O)c2ccc(Cl)cc2Cl)C(Cl)=C1Cl (stereo not drawn)", 0),
    ("CCOC(=O)/C(C#N)=C/c1coc2cc(C)cc(C)c2c1=O", 6),
    ("CCCCOC(c1ccccc1)N1CCCCC1 (stereo not drawn)", 0),
]

Please report the recorded growth inhibition for COC(=O)CCC(=O)c1ccc2c(c1)CC1(Cc3ccccc3C1)C2 .
20

Now give it for O=C(OCc1ccc2c(c1)OCO2)c1ccc(Cl)cc1 too.
19

Now give it for Cc1nn(-c2ccc(S(=O)(=O)[O-])cc2)c([O-])c1N=[N+](C)c1ccc(-c2ccc(N=Nc3ccc4c(S(=O)(=O)[O-])cc(S(=O)(=O)[O-])c(N)c4c3[O-])c([O-])c2)cc1[O-].[Cu+2].[Cu+2].[Na+] too.
6

Now give it for Cn1nc(-c2ccccc2NC(=O)C(F)(F)F)c(=O)n(C)c1=S too.
-3

Now give it for O=C1C2=C(c3ccccc31)C(c1ccccc1Cl)NC(=S)N2 (stereo not drawn) too.
-5

Now give it for COc1cc(CNc2nc3ccccc3nc2-c2cccs2)cc(OC)c1OC too.
5

Now give it for COC(=O)[C@]1(C)CCC[C@]2(C)c3ccc(C(C)C)cc3C(=O)C[C@@H]12 too.
5

Now give it for Cn1cnc([N+](=O)[O-])c1S too.
2

Now give it for CCCCCCCCCCCCS too.
0

Now give it for CCCC(=O)Nc1cc([N+](=O)[O-])ccc1O too.
-129

Now give it for O=c1c(O)cc2c(O)oc3c(=O)c(O)c(O)c4c(O)oc1c2c43 too.
58

Now give it for Cc1ccc(SCc2nc3ccccc3c(C)[n+]2[O-])cc1 too.
2

Now give it for OC1(c2ccccc2)CCN(c2c3ccccc3nc3ccccc23)CC1 too.
0

====

Method Description: NCI Yeast Anticancer Drug Screen. Data for the cln2 rad14 strain (AID 165);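 also: 0% = growth equal to vehicle treated cultures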
Experimental Parameters: S. cerevisiae cln2 rad14 strain, at 5.0 µM (retest, dose inferred, filed as 0.5), hits give high values
About 79,000 compounds went through this panel and 15% of them were active in at least one assay; those are over-represented in the sample as a whole.
Reported Endpoint: growth inhibition (%)
Numeric only. Scale: %

A selection of reference data follows.
# Compound, Unit Abbrev, growth inhibition
rows = [
    ("c1ccc2c(c1)OCC(CN1CCN(CC3COc4ccccc4O3)CC1)O2 (configuration not stated)", "%", 52),
    ("[N-]=[N+]=Nc1c(-c2ccccc2)c(=O)n(-c2ccccc2)c2ccccc12", "%", 12),
    ("Cc1ccccc1C(=N)c1ccccc1Cc1cccc2ccccc12", "%", -11),
    ("COC(=O)Nc1nc2ccc(C(C)(O)c3cccs3)cc2[nH]1 (configuration not stated)", "%", -15),
    ("O=C1c2cccc(O)c2C(=O)c2c(OC3OC(CO)C(O)C(O)C3O)cccc21 (configuration not stated)", "%", 16),
    ("Cc1ccccc1NC(=O)CSC(N)=O", "%", 5),
    ("O=C1c2ccccc2C(=O)c2sc(Nc3ccc(Cl)c(Cl)c3)nc21", "%", 68),
    ("c1ccc(NNc2ccc3ccccc3n2)cc1", "%", -6),
]

Please report the recorded growth inhibition for Cc1cc(NC(=S)SCc2ccc(Cl)cc2)ccc1F .
-7

Now give it for CC(C)(C)c1ccc(-c2nc3ccccc3c(=O)o2)cc1 too.
-2

Now give it for Cc1cccc2c1CC1(C2)Cc2c(C)cccc2C1=O (configuration not stated) too.
26

Now give it for Cc1ccc(S(=O)(=O)NNC(C[N+](=O)[O-])c2ccccc2)cc1 (configuration not stated) too.
8

Now give it for CC1(c2ccccc2)OC1C(=O)N(c1ccccc1)c1ccccc1 (configuration not stated) too.
15

Now give it for COc1ccc(C2=C(Cl)C(=O)N(c3ccccc3C)C(=O)C2(Cl)Cl)cc1 too.
24

Now give it for Cc1ccccc1Sc1ccccc1[N+](=O)[O-] too.
5

Now give it for O=C(Nn1c(-c2ccccc2)nc2ccccc2c1=O)c1ccccc1O too.
9

Now give it for CCN(CC)CCCCCCNc1cc(Cl)cc2cccnc12 too.
26

====

Method Description: NCI Yeast Anticancer Drug Screen. Data for the mlh1 rad18 strain (AID 175)
Experimental Parameters: S. cerevisiae mlh1 rad18 strain growth inhibition; at 50.0 µM (retest, dose inferred, filed as 5.0); hits give high values
This is part of a sample that, as a whole, favours compounds with a hit. Of some 79,000 tested, about 15% had one in any assay.
Rule: satisfied for growth inhibition not less than 80%, not satisfied for anything less.

Reference set, count: 5
# Compound, Qualitative Label
records = [
    ("O=c1c2cc(Cl)ccc2[nH]c2cc(O)cc(O)c12", "not satisfied"),
    ("COc1ccc(C(O)/C(=N\\NC(N)=S)c2nc3ccc([N+](=O)[O-])cc3[nH]c2=O)cc1OC (stereo not given)", "satisfied"),
    ("O=c1oc(-c2ccc(Cl)c([N+](=O)[O-])c2)ns1", "satisfied"),
    ("CC(C)c1cc(=O)c2cc3[nH]c4ccccc4c3cc2[nH]1", "satisfied"),
    ("Cc1ccc(S(=O)(=O)NC(CCC(=O)Nc2ccccc2)C(=O)O)cc1 (stereo not given)", "not satisfied"),
]

Record COC(=O)C1(Cc2ccc3c(c2)CCC3)Cc2ccc3c(c2C1O)CCC3 (stereo not given) ; criterion: growth inhibition no lower than 80%. Met?
satisfied

Now give it for O=C(CC(=O)c1ccccc1)CC(=O)c1ccccc1 too.
satisfied

Now give it for CCCCP(CCCC)(CCCC)=C(C(=O)OC)C(C(=O)OC)=C1SC(C(=O)OC)=C(C(=O)OC)S1 too.
not satisfied
